System: CCRF-CEM leukemia
EXPERIMENT_SUMMARY: NCI tumour cell line growth inhibition, 48 h
Give TGI for every item shown.
Numbers only, in µM.

structure=CC(C)(C)OC(=O)N1[C@@H]2Cc3ccc(N)cc3[C@@]1(C)c1ccccc12 endpoint_result=64.9

Now examine the next entry.
Please tell me: TGI of `Cc1ccc(Nc2cc(C)nc(NCCCNc3ccnc4cc(Cl)ccc34)n2)cc1` , system CCRF-CEM leukemia? 3.79

----------
Test system: XF 498 CNS
EXPERIMENT_SUMMARY: NCI tumour cell line growth inhibition, 48 h
OBSERVATION_TYPE: TGI

// worked examples, TGI included
structure=Cc1c(-c2nnc(-c3ccccc3)o2)c(=O)n(-c2ccccc2)n1C endpoint_result="> 100 µM"
structure=CS(=O)(=O)N(CCC#N)c1ccc(C=O)cc1 endpoint_result="> 100 µM"
structure=O=C1C(=O)N(c2nccs2)C(=O)C(=O)C1c1nc2ccccc2s1 endpoint_result="> 100 µM"
structure=NCc1c(C(N)=O)ncn1Cc1ccccc1 endpoint_result="> 100 µM"
structure=COc1cccc(-c2nccc3c(OCc4ccccc4)c(OC)c(OC)cc23)c1 endpoint_result="> 100 µM"

// each compound listed below needs its TGI
1. O=C(O)c1ccccc1N=Nc1ccc2oc(=O)c(C(=O)Nc3ccccc3)cc2c1
2. O=C(CSc1nnc(-c2ccc(N=Cc3ccc(Cl)cc3)cc2)o1)Nc1ccc([N+](=O)[O-])cc1
3. Cc1ccc(C2=C(c3ccc(C)cc3)C(c3ccc(C)cc3)=C(c3ccc(C)cc3)C2=O)cc1
4. O=[N+]([O-])c1ccc([N+]2=NC(c3ccccc3)=NN(c3ccccc3)C2)cc1

["> 100 µM", "47.1 µM", "> 100 µM", "58.9 µM"]

----------
Tested on: OVCAR-5 ovarian
EXPERIMENT_SUMMARY: NCI tumour cell line growth inhibition, 48 h
Give TGI for every item shown.

compound="O=C(O)CNC(=O)c1ccc2cc(C(=O)N3CC(CCl)c4ccc([N+](=O)[O-])cc43)[nH]c2c1 (stereo not given)" observation_type=TGI endpoint_result="> 100 µM"

// each compound listed below needs its TGI
1. COCC12CCC(OC)C34C5CC6(O)C(OC)CC(OC(C)=O)(C5C6OC(=O)c5ccccc5)C(C(OC)C13)C4N(C)C2 (stereo not given)
2. CSc1ccc(SC2c3ccc(C)cc3Oc3nc(N)c(C#N)c(N)c32)cc1 (stereo not given)

1. > 100 µM
2. 3.24 µM

// each compound listed below needs its TGI
1. CNC(=S)NNc1ncnc2c1ncn2-c1ccc(C)cc1
2. CCCC(=O)NC(Nc1ccc(F)cc1)(C(F)(F)F)C(F)(F)F
3. NS(=O)(=O)c1ccc(-n2ncc3c(Nc4ccccc4)ncnc32)cc1
4. COc1cccc(CCC(=O)c2cc3c(N)c(C(=O)Nc4cccc(Cl)c4C)sc3nc2C)c1
5. c1ccc(B2OCC(C3OB(c4ccccc4)OC4COB(c5ccccc5)OC43)O2)cc1 (stereo not given)
6. COc1cccc(C2SC(C)C(=O)N2CCc2cccs2)c1 (stereo not given)

["> 100 µM", "> 100 µM", "> 100 µM", "> 100 µM", "> 100 µM", "20 µM"]

Please tell me: TGI of `CCOc1ccc(/C=C2\NC(=S)N(/C=C3\C(=O)Oc4ccccc4C3=O)C2=O)cc1` , system OVCAR-5 ovarian? > 100 µM
